Test system: Saccharomyces cerevisiae growth inhibition, permissive control
Assay: yeast lifespan-shortening chemical project counter-assay, dose-response inhibition of growth under permissive conditions (AID 850);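 note: growth read as optical density after one day of incubation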
Activity calls are given as the source filed them. The rule behind the calls is not given here.
Respond with a class label; see active, inactive

Incoming: Outcome logged for Cc1nc2ccccc2c2nc3ccccc3n12 in this assay:
Outgoing: active

Incoming: # repeat for Cc1nn2c(-c3ccncc3)nnc2c2ccccc12
Outgoing: active

Incoming: # repeat for CCOC(=O)c1c(N)sc2c(OC)c(Br)ccc12
Outgoing: inactive

Incoming: # repeat for COC1=C(c2ccccc2)C(=O)c2ccccc2C1=O
Outgoing: active

Incoming: # repeat for COc1ccc(Nc2cnn(-c3nc4ccccc4s3)c(=O)c2Cl)cc1
Outgoing: active

Incoming: # repeat for Cc1ccc(N/N=C(\C#N)C(N)=S)c(C)c1
Outgoing: inactive

Incoming: # repeat for O=c1oc2ccccc2c(N2CCCC2)c1CN1CCCC1
Outgoing: inactive

Incoming: # repeat for C=CCNC1=C(Cl)C(=O)c2ccccc2C1=O
Outgoing: inactive

Incoming: # repeat for S=C(Nc1ccc(Oc2ccccc2)cc1)NC1CCCCCC1
Outgoing: inactive

Incoming: # repeat for Cc1cccc(C(=O)CC(=O)c2cc(Cl)ccc2O)c1
Outgoing: active

Incoming: # repeat for CC1(C)CC(=NOC(=O)c2ccccc2)CC(C)(C)N1O
Outgoing: active

Incoming: # repeat for O=C1ON=C(c2ccccc2)/C1=C/c1ccc(OS(=O)(=O)c2ccccc2)cc1
Outgoing: inactive

Incoming: # repeat for CC1(CCc2ccccc2)NC(=S)N(c2ccccc2)N1 (centres undefined)
Outgoing: active

Incoming: # repeat for O=C(O)CSc1nc(-c2ccc(Cl)cc2)nc2c1oc1ccccc12
Outgoing: active

Incoming: # repeat for O=C1C(=C2CCCCC2)SC(=S)N1Cc1ccco1
Outgoing: inactive

Incoming: # repeat for COc1cc(/C=C2\C(=O)ON=C2c2ccccc2)cc(OC)c1OC
Outgoing: inactive

Incoming: # repeat for C=C(C)COc1ccc(-c2[nH]ncc2-c2ccccc2OC)c(O)c1
Outgoing: inactive

Incoming: # repeat for CC(C)CC(=O)/C(=C\c1ccc(Cl)cc1Cl)n1cncn1
Outgoing: active

Incoming: # repeat for CCSc1nc2ccccc2n1S(=O)(=O)c1ccccc1
Outgoing: inactive

###

Test system: Saccharomyces cerevisiae growth inhibition, permissive control
Assay: yeast lifespan-shortening chemical project counter-assay, dose-response inhibition of growth under permissive conditions (AID 850);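 note: growth read as optical density after one day of incubation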
The source made the active and inactive calls. How the calls were made is not given here.
Respond with a class label; see 1 (active), 0 (inactive)

Incoming: Outcome logged for COC(=O)Cc1cc(=O)n(-c2nc3ccccc3[nH]2)[nH]1 in this assay:
Outgoing: 1

Incoming: # repeat for c1ccc2c(c1)C(=Nn1cnnc1)c1ccccc1-2
Outgoing: 0

Incoming: # repeat for O=C1c2ccccc2NC(c2ccc(-c3ccc(Br)cc3)o2)N1O (stereo not given)
Outgoing: 1

Incoming: # repeat for Cc1c(C=O)c2ccccn2c1C(=O)c1ccncc1
Outgoing: 0

Incoming: # repeat for Cc1ccccc1N=Cc1cccc(O)c1O
Outgoing: 1

Incoming: # repeat for CCn1c2ccc(C)cc2c2nc3cc(C(=O)O)ccc3nc21
Outgoing: 1

Incoming: # repeat for Oc1c(Br)cc(Br)cc1Oc1ccc(Br)cc1Br
Outgoing: 0

Incoming: # repeat for CC(=O)NC(CCS(C)(=O)=O)C(=O)Nc1ccc2c(c1)OCO2 (stereo not given)
Outgoing: 0

Incoming: # repeat for O=C(Oc1c(Cl)cc(Cl)c2cccnc12)c1cccs1
Outgoing: 1

Incoming: # repeat for Cc1nc2ccc(NC(=O)c3cc([N+](=O)[O-])cc([N+](=O)[O-])c3Cl)cc2s1
Outgoing: 1

Incoming: # repeat for Cc1cc(C(=O)N/N=C/c2cccc([N+](=O)[O-])c2O)n[nH]1
Outgoing: 0

Incoming: # repeat for COc1ccc(CNC(=O)CSc2nnc(-c3ccc(NC(C)=O)cc3)n2C)cc1
Outgoing: 0

Incoming: # repeat for Cc1nn(-c2cccc(C(F)(F)F)c2)c(Cl)c1/C=N/Nc1cccc(C(=O)O)c1
Outgoing: 1

Incoming: # repeat for Cc1ccc(-c2cc(-c3ccccc3Cl)[nH]n2)c(O)c1
Outgoing: 0

Incoming: # repeat for Cc1cc(C)nc(N/N=C/C2=C(N3CCOCC3)C(=C\c3ccc(Cl)cc3)/CC2)n1
Outgoing: 0

Incoming: # repeat for O=[N+]([O-])c1ccc(Cl)c(S(=O)(=O)N2CCCCCC2)c1
Outgoing: 1

Incoming: # repeat for COc1ccc(C(=O)NC(=S)NNC(=O)c2cnccn2)cc1
Outgoing: 1

Incoming: # repeat for C=C(C)COc1ccc(-c2[nH]ncc2Oc2cccc(OC)c2)c(O)c1
Outgoing: 0

Incoming: # repeat for O=C1OCC(CO)(CO)N=C1NNc1ccccc1Cl
Outgoing: 1

Incoming: # repeat for Cc1cc(C)cc(N=Cc2ccc([N+](=O)[O-])s2)c1
Outgoing: 1

Incoming: # repeat for Cn1c(C(=O)N2CCC(C(=O)N3CCN(Cc4ccc5c(c4)OCO5)CC3)CC2)cc2sccc21
Outgoing: 0

Incoming: # repeat for CN(O)/C=c1/ccc2c(n1)C(=O)C=CC=2
Outgoing: 1

Incoming: # repeat for CCOC(=O)CSc1nnc(CSc2nc(N)c3c(C)c(C)sc3n2)n1-c1ccccc1
Outgoing: 0

Incoming: # repeat for Cc1nc2ccccc2c2c1C(=O)N(C)C2=O
Outgoing: 0

Incoming: # repeat for O=C1c2ccc3c4c(ccc(c24)C(=O)N1NC(=O)C(F)(F)F)CC3
Outgoing: 0

Incoming: # repeat for CC(C)Sc1nc(N)nc(-c2cccs2)c1C#N
Outgoing: 0

Incoming: # repeat for Cn1c(N2CCOCC2)c(/C=N/OC(=O)c2ccc(F)cc2)c2ccccc21
Outgoing: 0

Incoming: # repeat for CCCCN=C(NNc1ccc(Br)cc1)C(=O)OCC
Outgoing: 1

Incoming: # repeat for O=[N+]([O-])c1cc(/C=N/O)ccc1Sc1ccccc1
Outgoing: 0

Incoming: # repeat for C(=C\c1nc(N2CCCCCC2)c2ccccc2n1)/c1ccccc1
Outgoing: 1

Incoming: # repeat for CCCCCCc1ccc(-c2ncc(N)cn2)cc1
Outgoing: 1

Incoming: # repeat for CC1=NOC(=O)/C1=C/c1ccc(-c2ccc(Cl)cc2)o1
Outgoing: 1

Incoming: # repeat for O=C(OCn1ncc(Cl)c(Cl)c1=O)c1ccc(F)cc1
Outgoing: 0

Incoming: # repeat for O=C(Nc1nc(-c2ccccn2)cs1)c1ccc(Cl)s1
Outgoing: 1

Incoming: # repeat for O=[N+]([O-])c1ccc(CN2CCCCCC2)s1
Outgoing: 0
